Origin of values: ChEMBL document CHEMBL4342483

ASSAY_PROCEDURE: Prodrug conversion in phosphate buffer at pH 7.4 and d6-DMSO (1:1) assessed as rate constant for release of active compound mimetics by kinetic time-course NMR method
Type: ADME
MEASURED_PROPERTY: K (h⁻¹)
Use h⁻¹ as the unit, but write only the number.

Q: In one line, give reported K of the entry CC(OC(=O)C[C@H](N)C(=O)n1ncc2cc(Br)ccc21)OC(=O)N1CCC(c2ccccc2)CC1 (stereo partly specified) .
A: 1.37

###

Would you mind telling me the reported half-life of each entry?
ASSAY_PROCEDURE: Half life in rat plasma
Assay type: ADME, cell-free
Please make sure the unit comes right after the number.

Q: For the molecule Cc1cc(Nc2ncc(Cl)c(Nc3ccccc3S(=O)(=O)C(C)C)n2)c(OC(C)C)cc1C1CCN(C(=O)OC(C)OC(=O)C[C@H](N)C(=O)n2ncc3c(-c4nc(N5CCOCC5)c5sc(CN6CCN(S(C)(=O)=O)CC6)cc5n4)cccc32)CC1 (stereo partly drawn) , give its measured half-life value.
A: 58 min

Q: For Cc1cc(Nc2ncc(Cl)c(Nc3ccccc3S(=O)(=O)C(C)C)n2)c(OC(C)C)cc1C1CCN(C(=O)OC(C)OC(=O)CC(N)CC(=O)n2ncc3c(-c4nc(N5CCOCC5)c5sc(CN6CCN(S(C)(=O)=O)CC6)cc5n4)cccc32)CC1 (stereo not drawn) , write its half-life.
A: 69 min

Q: In one line, give reported half-life of the entry Cc1cc(Nc2ncc(Cl)c(Nc3ccccc3S(=O)(=O)C(C)C)n2)c(OC(C)C)cc1C1CCN(C(=O)OC(C)OC(=O)[C@@H](N)CC(=O)n2ncc3c(-c4nc(N5CCOCC5)c5sc(CN6CCN(S(C)(=O)=O)CC6)cc5n4)cccc32)CC1 (stereo partly drawn) .
A: 38 min
